Source listed as PubChem BioAssay (NCI).

The entries below are paired with their reported TGI.
test system: MDA-MB-435; assay: NCI tumour cell line growth inhibition, 48 h
Answer in µM, number only, no unit symbol.

Field: example entries. Status: answers known.
- Cc1nc2ccccc2c(/C=C/c2ccccc2)c1C(=O)/C=C/c1ccc(C(F)(F)F)cc1: 3.55
- COc1cc(NS(C)(=O)=O)ccc1Cc1c2ccccc2nc2ccccc12: 11.3
- COc1ccc(C(=O)CCN(C)C)c2ccccc12: 48.1
- Cc1cccc2c(NCCN(C)C)c3cccc(C(=O)NCCN(C)C)c3nc12: 1.1

Ask: Give the measured TGI of "CCCS(=O)(=O)Nc1cccc(Nc2ncnc3cc(NC(=O)CCl)ccc23)c1Cl" .
Reply: 5.76

* * *

system: XF 498 CNS; test: NCI tumour cell line growth inhibition, 48 h
TGI reference
Answer format: numeric, µM implied, no suffix.

Solved entries (count: 3):
* CC(=O)OC1=C2CC[C@@H]3C(CC[C@@]4(C)C3CC[C@@H]4OC(C)=O)[C@@]2(C)CC(C#N)C1=O (stereo not given in full) | 80.8
* C/C(=C\C(C[C@](C)(O)C(O)CCC#C[Si](C)(C)C)S(=O)(=O)c1ccccc1)CC/C=C/CO[Si](C)(C)C(C)(C)C (stereo not given in full) | 26.2
* CCC[CH2][Sn]1([CH2]CCC)[O]CC[S]1 | 1.02

Next molecule, TGI to be filled in.
Ask: Query: TGI; subject: "COc1ccc([Se][Se]c2ccc(OC)cc2OC)c(OC)c1"
Reply: 3.84

* * *

Entries annotated with measured GI50
test system: NCI-H23 lung; experiment: NCI tumour cell line growth inhibition, 48 h

These solved cases illustrate the format of a correct answer.
- COc1cc2c(c(OC)c1OC)-c1c(c3ccc([N+](=O)[O-])cc3c(=O)n1CCCBr)C2=O: 68900 nM
- O=c1cc(-c2ccccc2)oc2c1ccc1ccccc12: 32600 nM
- CC1(C)N=c2cc3c(cc2N1c1ccc(Cl)cc1)=Nc1ccccc1N3c1ccc(Cl)cc1: 3160 nM
- CCCS(=O)(=O)Nc1cccc(Nc2ncnc3cc(NC(=O)CCl)ccc23)c1Cl: 1260 nM
- CCOC(=O)Nc1ccc2c(c1)C(=O)N(CC)c1ccccc1O2: 542 nM

// next entry
Ask: Entry "O=C1c2cc3c(cc2-c2c1c1ccc(F)cc1c(=O)n2C[C@H](O)[C@H](O)[C@H](O)CO)OCO3" : reported GI50 = ?
Reply: 129 nM

* * *

tested on: HT29 colon; test: NCI tumour cell line growth inhibition, 48 h
READOUT_KIND: TGI

Solved entries:
• COc1ccc(-c2oc3c(OC)c(OC)c(OC)c(O)c3c(=O)c2OC)cc1O = 36.8 µM
• CC1=C(SCCO)C(=O)c2ccccc2C1=O = 38.7 µM
• Nc1ccn(CCOC(c2ccccc2)P(=O)(O)O)c(=O)n1 (stereo unspecified) = > 100 µM
• CCCCc1nc(C)oc1C(C)C = > 100 µM
• COC(=O)[C@@H]1C[C@]2(Br)c3ccccc3N(S(=O)(=O)c3ccccc3)[C@@H]2N1C(=O)OC = > 100 µM
• FC(F)(F)c1nc(SCc2ccc(Cl)cc2)n[nH]1 = > 100 µM

Ask: Which TGI is listed for "Cc1cccc(N=Cc2ccc(N(CCC#N)S(=O)(=O)c3ccccc3)cc2C)c1" ?
Reply: > 100 µM

Ask: # input molecule: "O=C1/C(=C/c2ccccc2)CCc2ccc([N+](=O)[O-])cc21" ; wanted: its TGI
Reply: > 100 µM

Ask: Item CN/N=C(\C(=O)Nc1ccc(C(F)(F)F)cc1[N+](=O)[O-])C(c1cnc2ccc([N+](=O)[O-])cc2n1)[N+](=O)[O-] (stereo unspecified) has what recorded TGI?
Reply: > 100 µM

Ask: Any idea what its TGI is? The molecule is "O=C(C=Nc1ccccc1S)c1ccco1"
Reply: 37.7 µM

Ask: GET /values?readout=TGI&item= "COc1ccccc1/C=N/Nc1nnc2c3ccccc3c3ncccc3c2n1"
Reply: > 100 µM
